method-description: Solubility of selected steroids enhanced by cyclodextrins (phase solubility)
condition-set: aqueous cyclodextrin solution, aqueous with cosolvent or surfactant or cyclodextrin, thermodynamic from solid, Solubility of steroid, α-CD 0.08 M
readout-kind: solubility (µM)

(A) C[C@@H]1C[C@H]2[C@@H]3CCC4=CC(=O)C=C[C@]4(C)[C@@]3(Cl)[C@@H](O)C[C@]2(C)[C@@]1(OC(=O)c1ccco1)C(=O)CCl [Mometasone furoate, mometasone furoate]
(B) C[C@@H]1C[C@H]2[C@@H]3CCC4=CC(=O)C=C[C@]4(C)[C@@]3(Cl)[C@@H](O)C[C@]2(C)[C@@]1(O)C(=O)CCl
Data request: // returns A or B , whichever has the lower solubility Answer with the label corresponding to your selection.
Data returned: A
